Target or system: UniProt:P51639
Sequence (P51639 whole entry): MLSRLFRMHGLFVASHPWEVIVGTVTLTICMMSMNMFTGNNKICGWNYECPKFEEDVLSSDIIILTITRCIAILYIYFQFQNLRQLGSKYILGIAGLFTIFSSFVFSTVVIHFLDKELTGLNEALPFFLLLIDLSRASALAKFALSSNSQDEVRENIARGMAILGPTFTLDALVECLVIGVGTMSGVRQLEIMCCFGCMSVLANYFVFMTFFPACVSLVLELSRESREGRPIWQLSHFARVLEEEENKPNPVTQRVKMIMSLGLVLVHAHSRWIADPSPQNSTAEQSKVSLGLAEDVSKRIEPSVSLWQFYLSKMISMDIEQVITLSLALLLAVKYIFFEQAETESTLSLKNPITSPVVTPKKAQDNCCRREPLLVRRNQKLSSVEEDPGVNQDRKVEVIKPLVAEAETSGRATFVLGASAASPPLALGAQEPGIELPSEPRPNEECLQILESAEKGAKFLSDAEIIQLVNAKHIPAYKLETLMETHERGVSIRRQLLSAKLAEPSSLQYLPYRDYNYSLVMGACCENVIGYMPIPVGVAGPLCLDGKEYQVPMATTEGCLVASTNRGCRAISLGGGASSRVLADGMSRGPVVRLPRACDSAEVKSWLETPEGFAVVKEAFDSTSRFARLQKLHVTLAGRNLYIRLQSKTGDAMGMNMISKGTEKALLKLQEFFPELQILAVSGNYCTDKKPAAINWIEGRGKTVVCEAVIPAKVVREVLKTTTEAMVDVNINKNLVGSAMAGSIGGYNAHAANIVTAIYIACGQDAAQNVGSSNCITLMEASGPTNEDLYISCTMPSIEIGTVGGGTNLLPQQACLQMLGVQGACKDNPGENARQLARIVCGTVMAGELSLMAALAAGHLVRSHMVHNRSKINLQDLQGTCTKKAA
Experimental readout: IC50 (nM)

Compound | Target or system | Reported value
CN(C)c1nc2ccccc2c(-c2ccc(F)cc2)c1/C=C/[C@@H]1C[C@@H](O)CC(=O)O1 | UniProt:P51639 | 350
CC(C)c1c(/C=C/[C@@H]2C[C@@H](O)CC(=O)O2)c(-c2ccc(F)cc2)c2cc(F)ccc2[n+]1[O-] | UniProt:P51639 | 79
CC(C)c1nc2ccccc2c(-c2ccc(F)cc2)c1/C=C/[C@@H]1C[C@@H](O)CC(=O)O1 | UniProt:P51639 | 32
CC(C)c1nc2ccc(F)cc2c(-c2ccc(F)cc2)c1/C=C/[C@@H]1C[C@@H](O)CC(=O)O1 (stereo in doubt; 8d) | UniProt:P51639 | 200
